Biological target: DCAF15 and RRM2 domain in RBM39 (Homo sapiens (Human), UniProt Q14498+Q66K64)
Sequence (Q66K64 whole entry, the tested form may be a part): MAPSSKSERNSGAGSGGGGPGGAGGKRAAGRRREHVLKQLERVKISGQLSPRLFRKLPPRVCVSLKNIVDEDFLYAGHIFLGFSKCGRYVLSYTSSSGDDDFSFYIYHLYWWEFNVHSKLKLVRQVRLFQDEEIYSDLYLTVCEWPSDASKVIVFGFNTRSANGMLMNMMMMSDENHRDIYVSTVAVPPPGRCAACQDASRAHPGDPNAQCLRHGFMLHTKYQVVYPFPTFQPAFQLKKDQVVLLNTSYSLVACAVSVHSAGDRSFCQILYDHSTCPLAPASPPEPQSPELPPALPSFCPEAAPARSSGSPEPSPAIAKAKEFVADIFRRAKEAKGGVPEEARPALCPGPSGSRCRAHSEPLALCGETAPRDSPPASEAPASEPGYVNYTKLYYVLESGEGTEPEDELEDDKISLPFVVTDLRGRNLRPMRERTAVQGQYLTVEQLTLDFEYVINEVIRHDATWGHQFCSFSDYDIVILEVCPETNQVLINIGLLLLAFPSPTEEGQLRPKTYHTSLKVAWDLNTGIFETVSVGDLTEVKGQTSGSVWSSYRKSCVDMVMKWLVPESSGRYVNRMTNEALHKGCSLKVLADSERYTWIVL
Sequence (Q14498 250-328): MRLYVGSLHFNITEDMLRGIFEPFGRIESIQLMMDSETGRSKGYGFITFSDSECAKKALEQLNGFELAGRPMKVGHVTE
Sequence (Q16531 whole entry partner, the tested form may be a part): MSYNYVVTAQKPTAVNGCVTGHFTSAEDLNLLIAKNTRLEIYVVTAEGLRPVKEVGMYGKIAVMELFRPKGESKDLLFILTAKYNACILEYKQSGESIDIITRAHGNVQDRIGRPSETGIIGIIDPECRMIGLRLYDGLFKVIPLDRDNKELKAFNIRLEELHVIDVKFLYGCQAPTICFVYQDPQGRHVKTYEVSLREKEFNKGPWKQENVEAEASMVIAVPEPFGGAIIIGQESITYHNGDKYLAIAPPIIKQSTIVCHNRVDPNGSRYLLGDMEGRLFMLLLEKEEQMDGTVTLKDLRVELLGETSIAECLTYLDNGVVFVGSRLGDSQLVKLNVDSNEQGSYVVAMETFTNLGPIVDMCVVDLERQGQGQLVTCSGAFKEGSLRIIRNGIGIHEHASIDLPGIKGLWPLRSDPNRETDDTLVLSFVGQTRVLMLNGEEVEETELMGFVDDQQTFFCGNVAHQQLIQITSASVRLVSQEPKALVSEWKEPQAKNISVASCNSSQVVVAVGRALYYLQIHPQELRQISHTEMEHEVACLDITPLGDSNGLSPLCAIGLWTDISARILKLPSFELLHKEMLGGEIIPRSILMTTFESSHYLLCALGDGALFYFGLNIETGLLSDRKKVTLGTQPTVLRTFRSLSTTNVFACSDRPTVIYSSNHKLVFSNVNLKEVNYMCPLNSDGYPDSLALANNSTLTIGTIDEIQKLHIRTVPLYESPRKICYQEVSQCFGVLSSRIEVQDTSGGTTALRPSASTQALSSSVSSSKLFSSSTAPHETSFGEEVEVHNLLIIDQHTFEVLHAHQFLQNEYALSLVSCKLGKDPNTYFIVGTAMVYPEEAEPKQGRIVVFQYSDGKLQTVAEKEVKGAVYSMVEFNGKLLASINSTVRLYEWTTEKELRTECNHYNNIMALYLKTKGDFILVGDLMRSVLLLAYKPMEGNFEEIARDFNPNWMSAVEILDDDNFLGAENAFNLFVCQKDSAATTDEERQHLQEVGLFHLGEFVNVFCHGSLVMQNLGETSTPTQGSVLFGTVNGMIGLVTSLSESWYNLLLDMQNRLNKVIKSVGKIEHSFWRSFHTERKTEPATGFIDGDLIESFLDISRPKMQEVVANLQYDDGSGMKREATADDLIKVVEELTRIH
Assay: TR-FRET biochemical assay, DCAF15 activity (recruitment of RBM39 RRM2 domain to DCAF15)
Details: TR-FRET 520/490 nm ratio; biotinylated DCAF15 200 nM, Bodipy-FL RBM39 RRM2 200 nM, Tb-streptavidin 2 nM
pEC50: −log10 of the molar value.
quantity name: pEC50

1. Cc1ccc(NS(=O)(=O)c2ccc(C#N)cc2)c2[nH]cc(C#N)c12 5.00 to 6.00
2. Cc1cccc(S(=O)(=O)Nc2ccc(C)c3c(C#N)c[nH]c23)c1 5.00 to 6.00
3. N#Cc1cccc(S(=O)(=O)Nc2cc(Cl)cc3c(Br)c[nH]c23)c1 < 5.00
4. Cc1ccc(NS(=O)(=O)c2ccc([N+](=O)[O-])cc2)c2[nH]cc(C#N)c12 5.00 to 6.00
5. N#Cc1cccc(S(=O)(=O)Nc2cc(-c3ccccc3)cc3cc[nH]c23)c1 < 5.00

Qu. What measured pEC50 goes with N#Cc1cccc(S(=O)(=O)Nc2cccn3ncnc23)c1 ?
Ans. < 5.00

Qu. What measured pEC50 goes with Cc1ccc(NS(=O)(=O)c2ccccc2)c2[nH]cc(C#N)c12 ?
Ans. 5.00 to 6.00

Qu. What measured pEC50 goes with N#Cc1cccc(S(=O)(=O)Nc2ccc3[nH]cc(C#N)c3c2)c1 ?
Ans. < 5.00

Qu. What measured pEC50 goes with N#Cc1cccc(S(=O)(=O)Nc2cccc(C(N)=O)c2N)c1 ?
Ans. < 5.00

Qu. What measured pEC50 goes with Cc1ccc(NS(=O)(=O)c2cccc(C#N)c2)c2[nH]ccc12 ?
Ans. < 5.00

Qu. What measured pEC50 goes with N#Cc1cccc(S(=O)(=O)Nc2cc(F)cc3c2NC(=O)C3)c1 ?
Ans. < 5.00

Qu. What measured pEC50 goes with Cc1ccc(NS(=O)(=O)c2cccc(C#N)c2)c2[nH]cc(Br)c12 ?
Ans. 5.00 to 6.00

====

Biological target: DCAF15 and RRM2 domain in RBM39 (Homo sapiens (Human), UniProt Q14498+Q66K64)
Experiment: TR-FRET biochemical assay, DCAF15 activity (recruitment of RBM39 RRM2 domain to DCAF15)
Details: TR-FRET 520/490 nm ratio; biotinylated DCAF15 200 nM, Bodipy-FL RBM39 RRM2 200 nM, Tb-streptavidin 2 nM
Overview of recorded EC50 for various compounds

1) N#Cc1cccc(S(=O)(=O)Nc2cc(-c3ccccc3)cc3c(C#N)c[nH]c23)c1 > 10 µM
2) Cc1ccccc1S(=O)(=O)Nc1ccc(C)c2c(C#N)c[nH]c12 > 10 µM
3) Cc1ccc(NC(=O)c2cccc(C#N)c2)c2[nH]cc(C#N)c12 > 10 µM
4) COC(=O)c1ccc(S(=O)(=O)Nc2ccc(C)c3c(C#N)c[nH]c23)cc1 1 to 10 µM

Qu. What measured EC50 goes with CNC(=O)c1cccc(S(=O)(=O)Nc2ccc(C)c3c(C#N)c[nH]c23)c1 ?
Ans. 1 to 10 µM

Qu. What measured EC50 goes with Cc1ccc(NS(=O)(=O)c2ccccc2Br)c2[nH]cc(C#N)c12 ?
Ans. > 10 µM

Qu. What measured EC50 goes with N#Cc1cccc(S(=O)(=O)Nc2cc(Cl)cc3cc[nH]c23)c1 ?
Ans. > 10 µM

Qu. What measured EC50 goes with COC(=O)c1cccc(S(=O)(=O)Nc2ccc(C)c3c(C#N)c[nH]c23)c1 ?
Ans. 1 to 10 µM
